Cited source for all entries: PubChem BioAssay (NCI)

system: CAKI-1 renal; experiment: NCI tumour cell line growth inhibition, 48 h
Catalogue of GI50 values

Query block: Find the recorded GI50 belonging to COc1ccc(/C(=C(\c2ccccc2)[N+](=O)[O-])c2ccc(OCCN3CCCC3)cc2)cc1 and report it.
Result block: 2680 nM

###

Catalogue of TGI values
system: IGROV1 ovarian; experiment: NCI tumour cell line growth inhibition, 48 h

Please review the following examples before continuing.
> print(dat)
                                   molecule  measured.attribute    result
1  COc1ccc2c(c1O)[C@@]13CCCC=C1[C@@H](C2)N(C)CC3                 TGI  > 100 µM
2  C(/C=C(\Nc1ccccc1)c1ccc2ccccc2c1)=Nc1ccccc1                 TGI   13.7 µM
3  CCN(CC)C(=O)Cc1[nH][nH]c(=O)c1C(=O)N(CC)CC                 TGI  > 100 µM

Query block: Notebook entry, IGROV1 ovarian assay: TGI of Oc1ccccc1/C=N\NC(=S)Nc1ccc(F)cc1 = ?
Result block: 17.7 µM

Query block: Notebook entry, IGROV1 ovarian assay: TGI of O=C1CC2(CCN(Cc3ccccc3)CC2)C(=O)N1N1CCCCC1 = ?
Result block: > 100 µM
